Item-by-item account of Inhibition zone (quorum sensing)
System: C. violaceum 026 sensor strain with AHL producer E. cloacae 31298
Assay: Quorum sensing inhibition (agar diffusion, violacein production)
Assay type: cell-based, Chromobacterium violaceum
Details: disc with 10 μL of 1 mM stock; reduction of violacein zone
Experimental: The following bacterial strains were applied in the QS tests: C. violaceum 026 as sensor strain and E. cloacae 31298 isolated from clinical wound (used as N-acyl-homoserine lactone (AHL) producer); this strain induced pigment production by C. violaceum and is a model strain to study QS interactions. LB* was applied for these experiments. […] The inhibition of bacterial communication was determined by the agar diffusion method. […]
MEASURED METRIC: Inhibition zone (quorum sensing) (mm)

[Ag+].[Ag+].[O-]C(=Cc1nc2ccccc2o1)C(F)(F)F.[O-]C(=Cc1nc2ccccc2o1)C(F)(F)F: 53
CC(CN1c2ccccc2Sc2ccccc21)N(C)C (centres unmarked) [PMZ, promethazine, reference compound]: 16
O=C(Cc1nc2ccccc2o1)C(F)F: 56
[O-]C(=Cc1nc2ccccc2o1)C(F)(F)F.[O-]C(=Cc1nc2ccccc2o1)C(F)(F)F.[Zn+2]: 47
[O-]C(=Cc1nc2ccccc2o1)C(F)(F)Cl.[O-]C(=Cc1nc2ccccc2o1)C(F)(F)Cl.[Zn+2]: 16
